Molecular target: CXCR7 (Homo sapiens, UniProt P25106)
Sequence (P25106 whole entry): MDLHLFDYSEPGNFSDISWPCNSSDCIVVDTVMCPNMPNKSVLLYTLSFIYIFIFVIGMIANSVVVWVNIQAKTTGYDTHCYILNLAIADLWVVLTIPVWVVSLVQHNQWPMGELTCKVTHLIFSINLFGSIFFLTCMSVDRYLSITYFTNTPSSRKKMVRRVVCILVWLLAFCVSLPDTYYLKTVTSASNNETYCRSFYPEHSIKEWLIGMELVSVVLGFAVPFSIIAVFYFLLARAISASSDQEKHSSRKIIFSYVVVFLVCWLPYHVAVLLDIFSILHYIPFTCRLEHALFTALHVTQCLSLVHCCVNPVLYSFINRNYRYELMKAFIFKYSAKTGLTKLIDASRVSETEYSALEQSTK
Sequence (P32121 whole entry partner): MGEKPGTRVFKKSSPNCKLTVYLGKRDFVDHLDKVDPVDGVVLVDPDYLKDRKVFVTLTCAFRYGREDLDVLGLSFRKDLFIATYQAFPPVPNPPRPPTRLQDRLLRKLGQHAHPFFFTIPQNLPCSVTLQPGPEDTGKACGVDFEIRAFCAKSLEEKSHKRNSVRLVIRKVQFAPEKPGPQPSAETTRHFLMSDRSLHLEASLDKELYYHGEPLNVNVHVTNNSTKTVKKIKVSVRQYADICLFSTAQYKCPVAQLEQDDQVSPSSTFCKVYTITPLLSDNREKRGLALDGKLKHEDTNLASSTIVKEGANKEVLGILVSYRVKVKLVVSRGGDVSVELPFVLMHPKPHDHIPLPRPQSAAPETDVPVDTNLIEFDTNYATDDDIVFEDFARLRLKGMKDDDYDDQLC
Experiment: PathHunter CHO-K1 CXCR7 b-arrestin recruitment assay (CXCR7 agonistic activity)
Conditions: PathHunter CHO-K1 CXCR7 b-arrestin cell line
Experimental: The CXCl12 receptor and CXCR7 agonistic activities of the compounds of formula (I) are determined in accordance with the following experimental method. The assay is using the PathHunter™ CHO-K1 CXCR7 b-arrestin cell line from DiscoverX. The system is based on the Enzyme Fragment Complementation Technology. Two complementing fragments of the b-galactosidase enzyme are expressed within stably transfected cells. […]
pEC50 listing for selected compounds.
Bear in mind: pEC50 is minus log10 of a mol/L concentration; give just that figure.

These solved cases illustrate the format of a correct answer.
record_smiles: CC(C)CN1CCc2cccc(NCC(=O)N(CCN(C)C)Cc3ccccc3C(F)(F)F)c2C1
pEC50: 8.30
--
record_smiles: CCCOC(=O)N1CCc2c(cccc2NCC(=O)N(CCNC)Cc2ccccc2C(F)(F)F)C1
pEC50: 7.09
--
record_smiles: CN(C)CCN(Cc1ccccc1C(F)(F)F)C(=O)NCc1cccc2c1CN(CC1CC1)CC2
pEC50: 7.59

# ---- query compound ----
Ask | // returns reported pEC50 for input "CCC(=O)N1CCc2c(cccc2NCC(=O)N(CCN(C)C)Cc2ccc(F)cc2)C1"
Reply | 7.10
